# assay.protocol: protease stability score; higher = more stable; yeast display proteolysis, trypsin and chymotrypsin;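 also: log10 excess protease needed over predicted unfolded state with 0 meaning unfolded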
Decision: protease stability score >= 0.4 yields Met, all other cases yield Not met.

biopolymer.sequence	category.label
DEDEEKRIRKYIKQQETGDPDKLNKYFDKDVHLHVGDKEVKGDEQANRELEHKFRKLRYSFEVKKLEVSNGKVEVKYHATVESNGKPHTYEVSADATLHNGRLQSQVNNERG	Not met
DDQELAEDAQRQFQEVLKTGDPKRANELMDEDARLEVGDTQLHGRERVAKHLSDLRKQADHIDVRVDTIRVHNGRVDADVRIRITKNGQNREFRARLYFTVQGDKVKMKRLQES	Met
DEKKIKDLLLKLIEMYVSGNKEEVKKVGKDDVELHAGNQTYHGYEQMAKMAEKLKRYGVKLQITDAKVEGDKLTAKVDFHYGGETQKLEFVVQADGGKVDRMKIELSEEVVKVARKG	Not met
DHEESKDIAEKAVKAIETGDPDKFVSNMDKDASARIGDKTYHGRENLRKAMEDFRNQVDHLRVQSYKVSGNTQKLDMRADFNGRTRVITVVMQMENGRVSFIRVHIE	Not met
DEEVAKTMAEQWIKAVQKGDKEKLVKHYKPNVQWIDGDERTQGTDVVRKVMETAQKRGVEFQVRKRKVEGDQFEIVYDANVGNKTATFDIKFQVKGGKMEEMRVEVDERAKKVRKEG	Not met
